Entries and their AIRE transcriptional activation functional score
B1: library; numbered along this chain (parent)
chain: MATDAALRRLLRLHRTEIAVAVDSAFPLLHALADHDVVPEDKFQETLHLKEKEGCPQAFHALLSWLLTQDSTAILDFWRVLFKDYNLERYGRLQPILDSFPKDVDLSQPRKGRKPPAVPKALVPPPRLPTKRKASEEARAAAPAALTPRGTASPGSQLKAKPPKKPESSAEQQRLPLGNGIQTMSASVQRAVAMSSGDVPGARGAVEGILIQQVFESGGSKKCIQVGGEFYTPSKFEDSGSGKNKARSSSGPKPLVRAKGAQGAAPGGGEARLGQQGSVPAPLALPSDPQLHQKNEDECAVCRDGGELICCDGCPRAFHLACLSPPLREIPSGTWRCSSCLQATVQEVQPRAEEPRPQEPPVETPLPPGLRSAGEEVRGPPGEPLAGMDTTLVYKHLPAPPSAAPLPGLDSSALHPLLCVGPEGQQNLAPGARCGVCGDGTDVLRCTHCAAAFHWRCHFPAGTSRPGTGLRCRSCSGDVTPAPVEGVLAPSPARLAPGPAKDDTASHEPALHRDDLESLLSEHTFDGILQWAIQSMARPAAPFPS

- Variants of: B1
- procedure details: AIRE transcriptional activation functional score (insulin promoter-GFP; nonsense median 0, synonymous median 1) (normalised score); higher = higher AIRE activity (more reporter activation)
- particulars: with insulin promoter-GFP reporter in HEK293
Simply state the number, no unit and no words.

Check out these entries, answers already filled in.
[
  {
    "alteration": "T183C",
    "experimental value": 1.48
  },
  {
    "alteration": "R92A",
    "experimental value": -0.0922
  },
  {
    "alteration": "S169K",
    "experimental value": 1.77
  },
  {
    "alteration": "L63R",
    "experimental value": -0.0432
  },
  {
    "alteration": "K102F",
    "experimental value": 1.34
  }
]

*Q* Need AIRE transcriptional activation functional score of L308W , thanks.
*A* -0.607
